Sourced from PubChem BioAssay AID1851

Biological target: Cytochrome P450 2C9 (Homo sapiens) (UniProt P11712)
Sequence (P11712 whole entry, looked up): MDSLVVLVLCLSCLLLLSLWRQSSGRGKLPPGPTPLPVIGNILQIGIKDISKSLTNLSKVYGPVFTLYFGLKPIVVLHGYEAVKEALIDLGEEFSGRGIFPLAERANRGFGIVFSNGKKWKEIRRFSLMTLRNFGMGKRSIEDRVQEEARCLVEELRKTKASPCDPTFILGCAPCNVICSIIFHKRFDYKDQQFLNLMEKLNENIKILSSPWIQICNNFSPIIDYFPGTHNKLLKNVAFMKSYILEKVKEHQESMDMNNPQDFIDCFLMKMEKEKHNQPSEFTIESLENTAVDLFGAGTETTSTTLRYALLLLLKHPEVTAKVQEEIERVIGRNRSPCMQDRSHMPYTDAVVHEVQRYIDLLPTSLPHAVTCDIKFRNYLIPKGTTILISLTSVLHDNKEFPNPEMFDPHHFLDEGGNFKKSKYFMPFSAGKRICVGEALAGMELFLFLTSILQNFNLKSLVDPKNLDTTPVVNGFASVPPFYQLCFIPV
Assay: Cytochrome panel assay with activity outcomes
Details: recombinant CYP, pro-luciferin dealkylation, luminescence, p450-cyp2c9; series mostly up to 57.1 µM
The campaign covered roughly 16,000 compounds. About 4,000 (25%) were called active. Another 26% or so got no clear call; they are omitted. A selection follows.

- Compound: "CC1(C)CC(=O)c2cn3ncnc3nc2C1"
  AC50: "inactive"
- Compound: "O=C(NNC(=S)Nc1ccccc1)C1CC1"
  AC50: "inactive"
- Compound: "COc1cccc(CNc2ccc(F)c(Cl)c2)c1O"
  AC50: "2.82 µM (active)"
- Compound: "O=C(O)c1cccnc1C(=O)O"
  AC50: "inactive"
- Compound: "CCOc1ncccc1C(=O)OCC(=O)Nc1cc(C)ccc1C"
  AC50: "8.91 µM (active)"
- Compound: "COc1cc(/C=C(\\C#N)C(=O)c2ccc(O)c(O)c2)cc(I)c1O"
  AC50: "0.501 µM (active)"
- Compound: "COc1ccc(NC(=O)N2CCCC3(CCNCC3)C2)cc1"
  AC50: "inactive"
- Compound: "COc1ccc(NC(=O)C23CC4CC(C2)CC(n2cnc(Br)n2)(C4)C3)c(C)c1"
  AC50: "inactive"
- Compound: "CCCCOc1ccc(CNn2c(C)nc3ccccc3c2=O)cc1"
  AC50: "4.47 µM (active)"
- Compound: "C#CCn1c(S(=O)(=O)Cc2ccc(OC)cc2)nc(-c2ccccc2)c1-c1ccccc1"
  AC50: "2.82 µM (active)"
- Compound: "CN1CCN(C(c2ccccc2)c2ccccc2)CC1"
  AC50: "inactive"
- Compound: "COc1cc(C=O)ccc1OCCOCCOc1ccccc1Cl"
  AC50: "12.6 µM (active)"
- Compound: "CO[C@H]1C=CO[C@]2(C)Oc3c(C)c(O)c4c(O)c(c5c(c4c3C2=O)NC2(CCN(CC(C)C)CC2)N=5)=NC(=O)C(C)=CC=C[C@@H](C)[C@@H](O)[C@@H](C)[C@@H](O)[C@@H](C)[C@@H](OC(C)=O)[C@@H]1C"
  AC50: "inactive"
- Compound: "O=c1[nH]c2cc(Br)cnc2nc1/C=C(\\O)c1ccc(F)cc1"
  AC50: "inactive"
- Compound: "COc1ccc(CNC(C)(C)C)cc1Cl"
  AC50: "inactive"
- Compound: "CO[C@]1(C2=NCCN2)COc2ccccc2O1"
  AC50: "inactive"
- Compound: "O=C(OCc1ccc(Cl)cc1Cl)c1cccnc1Cl"
  AC50: "17.8 µM (active)"
- Compound: "O=c1cc(CO)oc(CN2CCCC2)c1O"
  AC50: "inactive"
- Compound: "C#CCN(C)CCCOc1ccc(Cl)cc1Cl"
  AC50: "inactive"
- Compound: "COc1ccc(C2CC(=O)CC(=O)C2n2cncn2)cc1 (stereo not drawn)"
  AC50: "inactive"
- Compound: "CCCC(=O)Nc1c2c(nn1-c1ccc(C)cc1C)CSC2"
  AC50: "14.1 µM (active)"
- Compound: "C=CCn1c(NCc2ccccc2)nc2ccccc21"
  AC50: "inactive"
- Compound: "CC(C)C(CCNC(=O)CC(Cc1ccccc1)c1ccco1)c1ccco1 (stereo not drawn)"
  AC50: "2.82 µM (active)"
- Compound: "O=C(Nn1cnc2ccccc2c1=O)c1ccc(F)cc1Cl"
  AC50: "inactive"
- Compound: "O=C1NCC2(CCN(CCc3ccccc3)CC2)O1"
  AC50: "inactive"
- Compound: "S=C(NCc1ccco1)N1CCN(C(c2ccccc2)c2ccccc2)CC1"
  AC50: "3.16 µM (active)"
- Compound: "COc1ccc(-n2cccc2C=O)cc1OC"
  AC50: "inactive"
- Compound: "O=C(CSCc1ccccc1Cl)NNC(=O)c1ccccc1"
  AC50: "inactive"
- Compound: "COc1ccccc1NC(=O)CN1CCN(CC(=O)Nc2ccc(OCc3ccccc3)cc2)CC1"
  AC50: "2.24 µM (active)"
- Compound: "CC1CCCCN1c1nc(-c2ccncc2)nc2ccccc12 (stereo not drawn)"
  AC50: "0.398 µM (active)"
- Compound: "CCCn1c(=O)c2[nH]c(-c3ccc(OCC(=O)NCCN)cc3)nc2n(CCC)c1=O"
  AC50: "inactive"
- Compound: "COc1cc(C)ccc1OCCOc1cc(C)ccc1Cl"
  AC50: "0.794 µM (active)"
- Compound: "C[C@@H](CC(=O)O)[C@@H](N)C(=O)O"
  AC50: "inactive"
- Compound: "Cc1cccc(C(=O)NNC(=O)C2CCCO2)c1 (stereo not drawn)"
  AC50: "inactive"
- Compound: "CC1=N/C(=C\\c2ccc([N+](=O)[O-])cc2)C(=O)N1c1ccc(Cl)cc1"
  AC50: "inactive"
- Compound: "CC(=O)N1CCC2(CCN(Cc3ccccc3)CC2)CC1"
  AC50: "inactive"
- Compound: "O=C(O)CNC(=O)[C@@H](CS)Cc1ccccc1"
  AC50: "inactive"
- Compound: "O=C(NN1C(=O)c2ccccc2C1=O)C1CCCCC1"
  AC50: "inactive"
- Compound: "COc1ccccc1CN1CC[C@@]2(CCCN(S(C)(=O)=O)C2)C1"
  AC50: "inactive"
- Compound: "COc1ccc(CNn2c(C)nc3ccccc3c2=O)cc1"
  AC50: "5.62 µM (active)"
- Compound: "N#Cc1c(-n2ccnc2)cccc1-n1ccnc1"
  AC50: "0.562 µM (active)"
- Compound: "CCCC(=O)Nc1c(C)n[nH]c1C"
  AC50: "inactive"
- Compound: "COc1ccccc1OCCCOc1ccc([N+](=O)[O-])cc1Cl"
  AC50: "11.2 µM (active)"
- Compound: "COC(=O)N1CCC2(CC1)CN(C(=O)Nc1ccc(OC)cc1)C2"
  AC50: "inactive"
- Compound: "O=C(CSCc1ccccc1Cl)NN1C(=O)c2ccccc2C1=O"
  AC50: "3.98 µM (active)"
- Compound: "Cc1cc(C)n(-c2nc3ccccc3c(=O)n2OCc2ccc(Cl)cc2)n1"
  AC50: "5.62 µM (active)"
- Compound: "COC(=O)c1ccc(NC(=S)N2CCN(Cc3cccc(C)c3)CC2)cc1"
  AC50: "25.1 µM (active)"
- Compound: "COCC(=O)Oc1c(S(=O)(=O)c2ccc(C)cc2)c(C)nn1-c1ccccc1"
  AC50: "1.78 µM (active)"

====

Target: Cytochrome P450 2C9 (Homo sapiens)
Experiment: Cytochrome panel assay with activity outcomes
Settings: recombinant CYP, pro-luciferin dealkylation, luminescence, p450-cyp2c9; series mostly up to 57.1 µM
In all, about 16,000 compounds went through this assay and about 4,000 (25%) were called active. Another 26% or so got no clear call; they are omitted. Calls follow the shape of the dose curve; as a rule, active = well fitted curve in the direction sought with a large enough effect; inconclusive = small, poorly fitted or top-dose-only effect, or effect the other way; inactive = no such curve, though single readings can be large or run the other way. Not all results are given here.
Outcome codes: active, inactive

- Compound: "CCN(CC)CCNC(=O)C(C)c1nn(C)c(=O)c2ccccc12 (stereo unspecified)"
  Target: "Cytochrome P450 2C9 (Homo sapiens)"
  Class assignment: "inactive"
- Compound: "CCOC(=O)C(C(=O)NCc1ccc(C)cc1)c1ncc(C(F)(F)F)cc1Cl (stereo unspecified)"
  Target: "Cytochrome P450 2C9 (Homo sapiens)"
  Class assignment: "inactive"
- Compound: "CCCC1(C)Nc2ccccc2-c2nc3ccccc3n21 (stereo unspecified)"
  Target: "Cytochrome P450 2C9 (Homo sapiens)"
  Class assignment: "active"
- Compound: "CCOC(=O)CNS(=O)(=O)c1cc(-c2nn(C)c(=O)c3ccccc23)ccc1C"
  Target: "Cytochrome P450 2C9 (Homo sapiens)"
  Class assignment: "active"
- Compound: "CCC1(C)Nc2ccccc2C(=O)N1O (stereo unspecified)"
  Target: "Cytochrome P450 2C9 (Homo sapiens)"
  Class assignment: "inactive"
- Compound: "CC1CCC2(CC1)N=C(N)Nc1nc3ccccc3n12 (stereo unspecified)"
  Target: "Cytochrome P450 2C9 (Homo sapiens)"
  Class assignment: "inactive"

====

Target: Cytochrome P450 2C9 (Homo sapiens)
Experiment: Cytochrome panel assay with activity outcomes
Conditions: recombinant CYP, pro-luciferin dealkylation, luminescence, p450-cyp2c9; series mostly up to 57.1 µM
Screen size: about 16,000 compounds; about 4,000 (25%) were called active. Inconclusive results (about 26%) are left out. Not all results are given here.

- Compound: "COc1cccc(Cn2c(=O)cnc3cnc(N(C)C)nc32)c1"
  AC50: "12.6 µM (active)"
- Compound: "Cc1nc2cnc(N3CCOCC3)nc2n(C)c1=O"
  AC50: "inactive"
- Compound: "CC1CC(C)CN(CCCNC(=O)C2CCCN(c3nnc(N4CCCC4=O)s3)C2)C1 (configuration not stated)"
  AC50: "inactive"
- Compound: "Cc1c(Cl)cccc1NC(=O)c1ccc(-n2ccnc2)nc1"
  AC50: "0.0794 µM (active)"
- Compound: "COc1cccc(Cn2c(=O)c(CCc3ccccc3)nc3cnc(OC)nc32)c1"
  AC50: "6.31 µM (active)"
- Compound: "CCCN1C2=NCCCN2c2ccccc21"
  AC50: "inactive"
- Compound: "OC[C@@H]1O[C@H](O)[C@@H](Cl)[C@H](O)[C@@H]1O"
  AC50: "inactive"
- Compound: "CCNc1ncc2nc(CCc3ccccc3)c(=O)n(Cc3cccc(OC)c3)c2n1"
  AC50: "inactive"
- Compound: "COc1ccc(CO/N=C/c2c(C)[nH]c(=O)[nH]c2=O)cc1"
  AC50: "inactive"
- Compound: "O=C(O)[C@H]1CN[C@H](C(=O)O)C1"
  AC50: "inactive"
- Compound: "CN1CCN(c2ncc3nc(-c4ccc(Cl)cc4)c(=O)n(CCC#N)c3n2)CC1"
  AC50: "inactive"
- Compound: "NC(=NCc1ccccc1)NC(=O)c1nc(Cl)c(N)nc1N"
  AC50: "inactive"
- Compound: "O=C(c1ccco1)N1CCN(c2cc(=O)n(C3CCCCC3)c(=O)[nH]2)CC1"
  AC50: "inactive"
- Compound: "C[C@H](NC[C@H](O)CP(=O)(O)CC1CCCCC1)c1ccc(Cl)c(Cl)c1"
  AC50: "inactive"
- Compound: "O=C(Nc1ccc(F)cc1)c1ccc(-n2ccnc2)nc1"
  AC50: "0.178 µM (active)"
- Compound: "O=C(NCCC1=CCCCC1)C1CCCN(c2nc3ccccc3o2)C1 (configuration not stated)"
  AC50: "3.55 µM (active)"
- Compound: "COc1ccc(-n2c(=O)cnc3cnc(N(C)C)nc32)cc1"
  AC50: "inactive"
- Compound: "CCOC(=O)c1cc(-c2ccc(Cl)cc2)nc2c1c(C)nn2CCC#N"
  AC50: "10 µM (active)"
- Compound: "Cc1cccc(-c2n[nH]c([N+](=O)[O-])n2)c1"
  AC50: "20 µM (active)"
- Compound: "CC1=CC(=O)C=CC1(C)C(Cl)(Cl)Cl (configuration not stated)"
  AC50: "inactive"
- Compound: "CC[C@]1(O)C[C@@H]2CN(CCc3c([nH]c4ccccc34)[C@](C(=O)OC)(c3cc4c(cc3OC)N(C=O)[C@H]3[C@@](O)(C(=O)OC)[C@H](C(=O)OC)[C@@]5(CC)C=CCN6CC[C@]43[C@H]65)C2)C1"
  AC50: "inactive"
- Compound: "COc1cccc(Cn2c(=O)c(CCc3ccccc3)nc3cnc(N(C)C)nc32)c1"
  AC50: "10 µM (active)"
